# System: HeLa cells
# experimental protocol: Cell proliferation assay (XTT), cytostatic activity
# Assay type: cell-based
# assay conditions: Homo sapiens, 72-h treatment, XTT cell proliferation kit
Cut-off 200 nM on IC50: below means met, at or above means not met.

Q: In plain terms, does COc1cc(N(C)S(=O)(=O)c2ccc3c(ccn3C)c2)cc(OC)c1OC come in under 200 nM for IC50?
A: met

Q: In plain terms, does COc1ccc(C(O)c2ccc3c(ccn3C)c2)c(OC)c1OC (stereo not drawn) come in under 200 nM for IC50?
A: not met

Q: In plain terms, does C=C(c1cc(Cl)nc(SC)c1)c1ccc2c(c1)c(C(=O)O)cn2C come in under 200 nM for IC50?
A: met

Q: In plain terms, does C=C(c1cc(SC)nc(SC)c1)c1ccc2c(c1)c(C(N)=O)cn2C come in under 200 nM for IC50?
A: not met

Q: In plain terms, does Cn1cc(C#N)c2cc(C(=NO)c3cc(Cl)nc(Cl)c3)ccc21 come in under 200 nM for IC50?
A: not met

Q: In plain terms, does COc1ccc(C(=O)c2ccc3c(c2)c(C=O)cn3C)c(OC)c1OC come in under 200 nM for IC50?
A: not met

Q: In plain terms, does COc1cc(C(=O)c2ccc3c(ccn3C)c2)cc(OC)c1OC come in under 200 nM for IC50?
A: met

Q: In plain terms, does COc1cc(OC)cc(N(C)S(=O)(=O)c2ccc3c(c2)c(C#N)cn3C)c1 come in under 200 nM for IC50?
A: not met

Q: In plain terms, does C=C(c1ccc2c(ccn2C)c1)c1ccc(OC)c(OC)c1OC come in under 200 nM for IC50?
A: met

Q: In plain terms, does C=C(c1cc(Cl)nc(N(C)C)c1)c1ccc2c(c1)c(C=O)cn2C come in under 200 nM for IC50?
A: not met

Q: In plain terms, does C=C(c1cc(SC)nc(SC)c1)c1ccc2c(c1)c(C=O)cn2C come in under 200 nM for IC50?
A: met

Q: In plain terms, does COc1ccc(C(=O)c2ccc3c(ccn3C)c2)c(OC)c1OC come in under 200 nM for IC50?
A: met

Q: In plain terms, does C=C(c1cc(OC)nc(SC)c1)c1ccc2c(c1)c(C(=O)O)cn2C come in under 200 nM for IC50?
A: not met

Q: In plain terms, does C=C(c1cc(Cl)nc(SC)c1)c1ccc2c(c1)c(C(N)=O)cn2C come in under 200 nM for IC50?
A: not met

Q: In plain terms, does C=C(c1cc(OC)c(OC)c(OC)c1)c1ccc2c(c1)c(C(=O)O)cn2C come in under 200 nM for IC50?
A: not met

Q: In plain terms, does C=C(c1cc(SC)nc(SC)c1)c1ccc2c(c1)c(C(=O)O)cn2C come in under 200 nM for IC50?
A: not met

Q: In plain terms, does COc1cc(NS(=O)(=O)c2ccc3c(ccn3C)c2)cc(OC)c1OC come in under 200 nM for IC50?
A: met

Q: In plain terms, does CSc1cc(C(=NO)c2ccc3c(ccn3C)c2)cc(N(C)C)n1 come in under 200 nM for IC50?
A: not met

Q: In plain terms, does C=C(c1cc(Cl)nc(SC)c1)c1ccc2c(ccn2C)c1 come in under 200 nM for IC50?
A: met

Q: In plain terms, does Cn1cc(C=O)c2cc(C(=O)c3cc(Cl)nc(Cl)c3)ccc21 come in under 200 nM for IC50?
A: not met

Q: In plain terms, does C=C(c1cc(Cl)nc(Cl)c1)c1ccc2c(c1)c(C#N)cn2C come in under 200 nM for IC50?
A: met

Q: In plain terms, does COc1cc(NS(=O)(=O)c2ccc3c(c2)c(C#N)cn3C)cc(OC)c1OC come in under 200 nM for IC50?
A: met

Q: In plain terms, does C=C(c1cc(SC)nc(SC)c1)c1ccc2c(ccn2C)c1 come in under 200 nM for IC50?
A: not met

Q: In plain terms, does C=C(c1cc(Cl)nc(Cl)c1)c1ccc2c(c1)c(C(N)=O)cn2C come in under 200 nM for IC50?
A: met

Q: In plain terms, does C=C(c1cc(SC)nc(N(C)C)c1)c1ccc2c(c1)c(C=O)cn2C come in under 200 nM for IC50?
A: not met

Q: In plain terms, does C=C(c1cc(Cl)nc(Cl)c1)c1ccc2c(ccn2C)c1 come in under 200 nM for IC50?
A: met

Q: In plain terms, does Cn1ccc2cc(C(=O)c3cc(Cl)nc(Cl)c3)ccc21 come in under 200 nM for IC50?
A: not met

Q: In plain terms, does C=C(c1cc(SC)nc(N(C)C)c1)c1ccc2c(c1)c(C#N)cn2C come in under 200 nM for IC50?
A: not met

Q: In plain terms, does C=C(c1ccc2c(c1)c(C=NO)cn2C)c1ccc(OC)c(OC)c1OC come in under 200 nM for IC50?
A: met
